tested on: KM12 colon; assay: NCI-60 one-dose screen, 48 h (100 = growth as untreated, 0 = no growth, -100 = all killed); conditions: 10 µM unless noted
Compounds without any hit were thinned out: in the full panel of roughly 83,000, 20% have a hit.
Would you mind sorting the entries by growth according to these classes? b0: < 20%; b1: ≥ 20% and < 80%; b2: ≥ 80%

The following molecules have reported results that may help.
| MOLECULE | SYSTEM | ASSIGNED CATEGORY |
| --- | --- | --- |
| NC(=O)NNC(=O)c1ccccc1 | KM12 colon | b2 |
| CCC1CCc2nc3sc(C(=O)Nc4cccc(C)c4)c(N)c3cc2C1 (stereo not given) | KM12 colon | b1 |

Which growth category applies to COc1ccc(/C=C2\C(=O)N(C(=O)c3csc(NC(C)=O)n3)N=C2C)cc1 here?
b2

Which growth category applies to O=C(Nc1cccc(C(F)(F)F)c1)Nc1ccc(OCc2nnc(-c3ccccc3)o2)c(F)c1 here?
b0

Which growth category applies to Cc1ccc2c(c1)C(=O)C(c1c(-c3[nH]c(=O)c4ccc(C)cc4c3O)c(O)c3ccccc3c1O)=NC2=O here?
b0

Which growth category applies to Cc1ccc(C2=NN(c3ccc(S(=O)(=O)NC(=O)NCc4ccccc4)cc3)C(c3ccc(N(C)C)cc3)C2)c(C)c1 (stereo not given) here?
b1

Which growth category applies to O=c1[nH]c(-c2cn(-c3ccc(Cl)cc3)nn2)nc2ccccc12 here?
b2

====

Reported growth is given for each of the following compounds.
Tested on: SF-268 CNS
Assay: NCI-60 one-dose screen, 48 h (100 = growth as untreated, 0 = no growth, -100 = all killed)
Settings: 10 µM unless noted
Procedure: Cells are grown in 96 well plates and exposed to the test compound for 48 hours. Compounds are tested at a single concentration, which is 10^-5 M for most compounds. The reported endpoint is percent growth (GI% or GIPRCNT), where numbers from 0 - 100% represent growth inhibition, and numbers from -100% - 0 represent cell death. For example, a value of 40 represents 60% growth inhibition. A value of 0 means no net growth occurred over the course of the experiment. […]
About 83,000 compounds went through this panel and 20% of them were active in at least one assay; those are over-represented in the sample as a whole.
Report only the number, with the unit % understood.

| COMPOUND | SYSTEM | MEASURED RESULT |
| --- | --- | --- |
| c1cc(-c2ccc3c(c2)OCO3)n2nccc2n1 | SF-268 CNS | 104 |

Look up growth for this compound: COc1cc(NCCCN=C(N)NC(N)=NC(C)C)c2ncccc2c1
44.1

Look up growth for this compound: COc1ccc2c(c1)NC(=O)CN2c1nc(C)nc2ccccc12
24.4

Look up growth for this compound: Cc1ccc(S(=O)(=O)NCCCNc2nccc(-c3c(-c4ccccc4)nc4sccn34)n2)cc1
38.6

Look up growth for this compound: O=C(CN1CCOCC1)Nc1ccc(-c2nc3ccccc3s2)cc1
110

Look up growth for this compound: CC(Cc1nnc(SCC(=O)Nc2ccc(I)cc2)n1N)c1ccccc1 (stereo not given)
102

Look up growth for this compound: Nc1c(C(=O)Nc2ccccc2)sc2nc3c(cc12)CN(Cc1ccccc1)CC3
48.8

Look up growth for this compound: COc1ccc(-c2nnc(COc3ccc(NC(=O)Nc4ccc(Cl)c(C(F)(F)F)c4)cc3F)o2)cc1
20.5

Look up growth for this compound: COC1=CC(c2ccc[nH]2)=N/C1=C\c1[nH]c(C)c(CCCn2cc(CCCCCCCCC[C@@H]3Cc4cc(O)ccc4C4CC[C@]5(C)[C@@H](O)CC[C@H]5C43)nn2)c1C (stereo not given in full)
58.2

Look up growth for this compound: CCCCNc1nnc(-c2cc(-c3cc4ccccc4o3)nn2-c2ccccc2)o1
93.9
